# System: γ-aminobutyric α-ketoglutaric transaminase (GABA T)
# procedure-details: Inhibition of GABA T in vitro (coupled spectrophotometric test with GABASE)
# Assay type: biochemical, Pseudomonas fluorescens
# experimental-conditions: comparison of Ki with sodium di-n-propylacetate (0.8 m mol/ml)
assay-metric: activity as GABA T inhibitor compared with sodium di-n-propylacetate

molecule: CCCCC(CCCC)CC(=O)O [Compound F, 3-n-Butyl-heptanoic acid]
recorded-result: slightly less active
//
molecule: CCCC(CCC)CC(=O)O [Compound A, 3-n-Propyl-hexanoic acid]
recorded-result: more active
//
molecule: CCCC(=CC(=O)O)CCC [Compound G, 3-n-Propyl-2-hexenoic acid]
recorded-result: more active
//
molecule: CCCC(CCC)CCC(=O)O [Compound B, 4-n-Propyl-heptanoic acid]
recorded-result: slightly less active

----------
Consider the following molecules; for each one, report its LD50.
# procedure-details: in vivo
# experimental-conditions: ip, mouse, intraperitoneal route
One number for each entry, in mg/kg.

molecule-smiles: CCCCC(CCCC)CC(=O)O
LD50 (mg/kg): 300
--
molecule-smiles: CCCC(CCC)CC(=O)O
LD50 (mg/kg): 500
--
molecule-smiles: CCCC(CCC)CCC(=O)O
LD50 (mg/kg): 350

Query: LD50; subject: `CCCC(CCC)CCCC(=O)O`
350

----------
# System: anoxic seizure induced by gallamine triiodoethylate
# procedure-details: Antianoxic activity: anoxic seizure induced by gallamine triiodoethylate
# Assay type: in vivo, mouse
# experimental-conditions: mice, i.p. 5 min before 16 mg/kg gallamine triiodoethylate i.p.; dose mg/kg: A 360, D 250, E 150, F 210, G 355
Could you please report measured % of increase in the period of survival in comparison with the controls for the items listed next?
Numeric answer plus unit only.

Below are worked cases with known answers.
molecule: CCCC(CCC)CC(=O)O [Compound A, 3-n-Propyl-hexanoic acid]
recorded-result: 60%
--
molecule: CCCCC(CCCC)CC(=O)O [Compound F, 3-n-Butyl-heptanoic acid]
recorded-result: 29%
--
molecule: CCC(CC)CC(=O)O [Compound E, 3-ethyl-pentanoic acid]
recorded-result: 59%
--
molecule: CCCC(=CC(=O)O)CCC [Compound G, 3-n-Propyl-2-hexenoic acid]
recorded-result: 50%

# input for lookup
I'd like to know its % of increase in the period of survival in comparison with the controls. The molecule in question is CC(C)CC(=O)O [Compound D, 3-methyl-butanoic acid]
73%
